Data provenance: patent US8778876B2

# TARGET_ENTITY: DEN2V NS2B-NS3pro (Dengue virus type 2)
# Sequence (Q91H74 entry or part of it, added parts left off): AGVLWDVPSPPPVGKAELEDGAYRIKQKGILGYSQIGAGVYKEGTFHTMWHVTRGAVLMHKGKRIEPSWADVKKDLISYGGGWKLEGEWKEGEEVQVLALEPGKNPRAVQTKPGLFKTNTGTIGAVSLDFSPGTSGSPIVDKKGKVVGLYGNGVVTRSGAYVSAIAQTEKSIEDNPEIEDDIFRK
# Sequence (Q91H74 entry or part of it partner, added parts left off): as the sequence (Q91H74 entry or part of it, added parts left off) above
# EXPERIMENT: Steady-state kinetics of inhibitors of DEN2V NS2B-NS3pro (Boc-GRR-AMC substrate, Dynafit)
# Format: biochemical, Dengue 2 virus
# MEASUREMENT_PARAMETERS: DEN2V NS2B-NS3 Ki1, second series analogs
Some compounds, each annotated with its measured Ki.
Could you give me the number in µM? Just the number is fine.

INSERT INTO assay_data (structure_as_smiles, endpoint_value) VALUES
  ('O=C1c2ccc(O)c(O)c2C(=O)c2c(O)ccc(O)c21', 72);

Next compound, please.
Ask: Given the compound `Oc1ccc2cc3ccc(O)cc3c(O)c2c1` , write its reported Ki.
Result: 7
